assay: inhibition of 3D7 malaria parasite growth – strain 3D7 (AID 2306);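 also: 0% = DMSO wells and 100% = chloroquine plus artemisinin control wells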; settings: P. falciparum 3D7 erythrocytic growth, LDH absorbance, 72 h; at 2 µM; stronger effect = higher value
measurement type: growth inhibition (%)
Write down the numeric answer in % and omit the unit.

>  <molecule>
O=C(NC1CCC(N2CCC(c3ccccc3C(F)(F)F)CC2)CC1)c1cc2ccccc2[nH]1 (stereo not given)

>  <measurement type>
growth inhibition

>  <readout units>
%

>  <numeric readout>
100

$$$$
>  <molecule>
O=C(Nc1ccc(-c2nc3ccccc3[nH]2)cc1)C1CCN(Cc2ccccc2)CC1

>  <measurement type>
growth inhibition

>  <readout units>
%

>  <numeric readout>
100

$$$$
>  <molecule>
Cc1cc(N(C)C)nc(Nc2ccc(NC(=O)c3c(F)cccc3Cl)cc2)n1

>  <measurement type>
growth inhibition

>  <readout units>
%

>  <numeric readout>
90

$$$$
>  <molecule>
CS(=O)(=O)CCNCc1cccc(-c2ccc3c(Nc4cc(O)c(Cl)cc4F)ccnc3c2)c1

>  <measurement type>
growth inhibition

>  <readout units>
%

>  <numeric readout>
101

$$$$
>  <molecule>
CCN(CC)CCCN(CCCN(CC)CC)c1cc(C)nc(Nc2ccc(Br)cc2)n1

>  <measurement type>
growth inhibition

>  <readout units>
%

>  <numeric readout>
101

$$$$

Requested field: growth inhibition. Item: `Cc1nc(N)nc(N)c1-c1cc(Cl)c(Cl)c(Cl)c1`
97

# lookup: growth inhibition of `CCOc1ccc(-c2nonc2NC(=O)c2ccccc2Cl)cc1OCC`
101

###

tested on: F380Y; experiment: modulators of BK channel variants, profiling panel, selectivity assay, cell-based, U2OS BacMam, thallium flux, beta subunits (AID 1259406); conditions: at 30 µM;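 also: initial slope of Thallos dye fluorescence rise after thallium is added; log ratio against the mean of 0.3% DMSO vehicle wells on the same plate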
measurement type: log fold change Tl+ flux
Give only the figure.

Entry `NC(=NNC(=O)c1cccnc1)c1ccncc1` has what log fold change Tl+ flux?
0.0309

###

system: R275C/beta4; test: modulators of BK channel variants, profiling panel, selectivity assay, cell-based, U2OS BacMam, thallium flux, beta subunits (AID 1259406); settings: at 30 µM;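 also: initial slope of Thallos dye fluorescence rise after thallium is added; log ratio against the mean of 0.3% DMSO vehicle wells on the same plate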
Quick list: log fold change Tl+ flux per entry.
Give the figure by itself; no unit, no explanation.

>  <compound>
CN(C)C1C(=O)C(C(N)=O)=C(O)C2(O)C(=O)C3=C(O)c4c(O)ccc(Cl)c4C(O)C3CC12 (centres undefined)

>  <target of assay>
R275C/beta4

>  <log fold change Tl+ flux>
-0.101

$$$$
>  <compound>
COc1cccc(CC(=O)NC2CCN(c3nccc(C(F)(F)F)n3)CC2)c1

>  <target of assay>
R275C/beta4

>  <log fold change Tl+ flux>
0.0415

$$$$
>  <compound>
COCC1=C(C(=O)OC(C)OC(=O)OC(C)C)N2C(=O)[C@@H](NC(=O)C(=NOC)c3csc(N)n3)[C@H]2SC1 (some centres undefined)

>  <target of assay>
R275C/beta4

>  <log fold change Tl+ flux>
0.0115

$$$$
>  <compound>
CC(C)(C)c1cc(-c2nc(-c3ccc(C(F)(F)F)cc3)no2)n(Cc2ccccc2)n1

>  <target of assay>
R275C/beta4

>  <log fold change Tl+ flux>
0.0105

$$$$
>  <compound>
Cn1c(SCCS(=O)(=O)c2ccc(OC(F)(F)F)cc2)nnc1C(F)(F)F

>  <target of assay>
R275C/beta4

>  <log fold change Tl+ flux>
-0.0219

$$$$
>  <compound>
N=C(N)Cc1c(Cl)cccc1Cl

>  <target of assay>
R275C/beta4

>  <log fold change Tl+ flux>
0.0274

$$$$

I would be grateful if you could share the reported log fold change Tl+ flux for CN1[C@@H]2CC[C@H]1CC(OC(=O)C(CO)c1ccccc1)C2 (some centres undefined) .
-0.00928

Recorded log fold change Tl+ flux for `C=CCc1ccc(O)c(-c2ccc(O)c(CC=C)c2)c1` , please?
0.697

So what does the record say about log fold change Tl+ flux for CS(=O)(=NS(=O)(=O)c1ccc(OC(F)(F)F)cc1)c1ccccc1 (centres undefined) ?
0.0404

So what does the record say about log fold change Tl+ flux for `Cc1c(C(=O)NN2CCCCC2)nn(-c2ccc(Cl)cc2Cl)c1-c1ccc(I)cc1` ?
0.0297

Endpoint output: log fold change Tl+ flux of `O=c1c(O[C@@H]2O[C@H](CO)[C@@H](O)[C@H](O)[C@H]2O)c(-c2ccc(O)c(O)c2)oc2cc(O)cc(O)c12` . Value?
0.0307

Please give the measured log fold change Tl+ flux for this compound: `CC(=O)Oc1ccc(OC(C)=O)c2cc3c(OC(C)=O)ccc(OC(C)=O)c3cc12`
-0.0622

Returns the measured log fold change Tl+ flux for the input compound. Input: `CO[C@H]1C=CO[C@@]2(C)Oc3c(C)c(O)c4c(O)c(c5c(nc6cc(C)ccn65)c4c3C2=O)NC(=O)C(C)=CC=C[C@H](C)[C@H](O)[C@@H](C)[C@@H](O)[C@@H](C)[C@H](OC(C)=O)[C@@H]1C`
-0.0127

Suppose we examine the compound `Cc1ccc(S(=O)(=O)NC(=O)Nc2nc(-c3ccc(C)c(Cl)c3)c(C)s2)cc1` ; what log fold change Tl+ flux value has been reported?
0.211
